system: Coxsackievirus B1; test: Antiviral activity against Coxsackievirus B1 in african green monkey Vero cells; format: functional
Entries and their Activity values follow.
Return type: number; implicit unit µM.

Recorded Activity, per entry:
1) N#Cc1cc([N+](=O)[O-])ccc1Oc1ccc(Cl)c(Cl)c1 | 15
2) Cc1cc(Oc2ccc([N+](=O)[O-])cc2C#N)ccc1Cl | 4.8
3) N#Cc1cc([N+](=O)[O-])ccc1Oc1cccc(Cl)c1Cl | 3.3
4) Cc1cccc(Oc2ccc([N+](=O)[O-])cc2C#N)c1 | 8.9
5) N#Cc1cc([N+](=O)[O-])ccc1Oc1ccccc1Cl | 5.6

Lab note: next compound to report on.
## Input Would you mind telling me what Activity value was observed for N#Cc1cc([N+](=O)[O-])ccc1Oc1ccccc1 ?
## Output 6.9

###

Entries and their Activity values follow.
tested on: Coxsackievirus A24; assay: Antiviral activity against Coxsackievirus A24 in human MRC5 cells; type: functional
Return type: number; implicit unit µM.

Recorded Activity, per entry:
1) N#Cc1cc([N+](=O)[O-])ccc1Oc1ccc(Cl)c(Cl)c1 | 1.8
2) N#Cc1cc([N+](=O)[O-])ccc1Oc1ccccc1Cl | 23
3) Cc1cccc(Oc2ccc([N+](=O)[O-])cc2C#N)c1 | 19

Lab note: next compound to report on.
## Input Record lookup: for Coxsackievirus A24, what Activity belongs to Cc1cc(Oc2ccc([N+](=O)[O-])cc2C#N)ccc1Cl ?
## Output 234

###

Entries and their IC50 values follow.
tested on: Coxsackievirus B3; assay: Antiviral activity against Coxsackievirus B3 assessed as reduction of virus-induced cytopathogenicity after 3 days by MTS assay; format: functional, organism-based; details: Enterovirus B, 72 h

1. N#Cc1cc([N+](=O)[O-])ccc1Oc1ccc(N)cc1 | 106 µM
2. N#Cc1cc([N+](=O)[O-])ccc1Oc1cccc(Br)c1 | 5 µM
3. N#Cc1cc([N+](=O)[O-])ccc1Oc1ccc(C(N)=O)cc1 | > 353 µM
4. N#Cc1cc([N+](=O)[O-])ccc1Oc1ccc(Br)cc1Cl | 3.7 µM
5. CC(=O)c1ccc(Oc2ccc([N+](=O)[O-])cc2C#N)cc1 | 35 µM

Lab note: next compound to report on.
## Input Would you mind telling me what IC50 value was observed for N#Cc1ccccc1Oc1ccc([N+](=O)[O-])cc1C#N ?
## Output 11 µM

###

system: Coxsackievirus B3; assay: Antiviral activity against Coxsackievirus B3 assessed as reduction of virus-induced cytopathogenicity after 3 days by MTS assay; assay type: functional, organism-based; settings: Enterovirus B, 72 h
Entries and their pIC50 values follow.
The meaning of pIC50 here: minus log10 of the concentration in molar units.

Recorded pIC50, per entry:
1) N#Cc1cc([N+](=O)[O-])ccc1Oc1ccccc1 | 5.06
2) Cc1cc(Oc2ccc([N+](=O)[O-])cc2C#N)ccc1Br | 5.59
3) N#Cc1cc([N+](=O)[O-])ccc1Oc1ccc(CO)cc1 | 3.92

## Input Would you mind telling me what pIC50 value was observed for N#Cc1cc([N+](=O)[O-])ccc1Oc1cccc([N+](=O)[O-])c1 ?
## Output 4.42

## Input Would you mind telling me what pIC50 value was observed for N#Cc1cc([N+](=O)[O-])ccc1Oc1ccc(Br)cc1 ?
## Output 5.24

## Input Would you mind telling me what pIC50 value was observed for N#Cc1cc([N+](=O)[O-])ccc1Oc1cc(Cl)c(Cl)cc1Cl ?
## Output 4.23

## Input Would you mind telling me what pIC50 value was observed for Cc1ccc(Oc2ccc([N+](=O)[O-])cc2C#N)cc1C ?
## Output 4.00

## Input Would you mind telling me what pIC50 value was observed for CSc1ccc(Oc2ccc([N+](=O)[O-])cc2C#N)cc1 ?
## Output 4.03

## Input Would you mind telling me what pIC50 value was observed for N#Cc1ccc(Oc2ccc([N+](=O)[O-])cc2C#N)cc1 ?
## Output 5.39

## Input Would you mind telling me what pIC50 value was observed for N#Cc1cc([N+](=O)[O-])ccc1Oc1c(Cl)cc(Cl)cc1Cl ?
## Output 4.14

## Input Would you mind telling me what pIC50 value was observed for N#Cc1cc([N+](=O)[O-])ccc1Oc1cc(Cl)ccc1Cl ?
## Output 5.42
